READOUT: melting point

The cases that follow already have their melting point on record.
STRUCTURE_SMILES: COc1cc(/C=C/C(=O)CC(=O)/C=C/c2ccc([N+](=O)[O-])c(OC)c2)ccc1O
OBSERVED: 157 to 163 °C

STRUCTURE_SMILES: O=C(/C=C/c1ccc(O)cc1)CC(=O)/C=C/c1ccccc1-c1cccnc1
OBSERVED: 180 to 189 °C

STRUCTURE_SMILES: O=C(/C=C/c1ccc(O)cc1)CC(=O)/C=C/c1ccccc1-c1cccc2ccccc12
OBSERVED: 95 to 101 °C

STRUCTURE_SMILES: COc1ccc(/C=C/C(=O)CC(=O)/C=C/c2cc(O)ccc2OC)cc1O
OBSERVED: 116 to 120 °C

STRUCTURE_SMILES: COc1cc(/C=C/C(=O)CC(=O)/C=C/c2cc(Cl)cc(Cl)c2)ccc1O
OBSERVED: 170 to 173 °C

List the reported melting point of each molecule below.
1. COc1ccc(/C=C/C(=O)CC(=O)/C=C/c2ccco2)cc1O
2. COc1cc(/C=C/C(=O)CC(=O)/C=C/c2ccc(O)cc2)c(Br)cc1O
3. O=C(/C=C/c1ccc(O)cc1)CC(=O)/C=C/c1ccc(O)c(Cl)c1

120 to 123 °C
237 to 242 °C
184 to 190 °C

List the reported melting point of each molecule below.
1. COc1cc(/C=C/C(=O)CC(=O)/C=C/c2ccc(O)cc2OC)ccc1O
2. COc1c(O)cccc1/C=C/C(=O)CC(=O)/C=C/c1ccc(O)cc1
3. COc1cc(/C=C/C(=O)CC(=O)/C=C/c2ccc(Cl)cc2Cl)ccc1O
4. COc1cc(/C=C/C(=O)CC(=O)/C=C/c2cc(Cl)ccc2Cl)ccc1O
5. CS(=O)(=O)Oc1ccccc1/C=C/C(=O)CC(=O)/C=C/c1ccc(O)cc1
6. COc1ccc(/C=C/C(=O)CC(=O)/C=C/c2cccc(O)c2O)cc1O
7. COC(=O)c1ccc(/C=C/C(=O)CC(=O)/C=C/c2ccc(O)c(OC)c2)cc1

203 to 208 °C
165 to 169 °C
124 to 130 °C
142 to 147 °C
163 to 167 °C
170 to 172 °C
149 to 152 °C
